The values you see were collected from patent US10125126B2.

Each item that follows carries a reported logP.
- test summary: log P by HPLC on a reversed-phase column (C 18), EEC Directive 79/831 Annex V.A8
- Assay type: physicochemical
- run conditions: HPLC on reversed-phase column (C 18), 40° C., 0.1% aqueous formic acid and acetonitrile, linear gradient 10% to 90% acetonitrile
measurement name: logP

| compound | result value |
| --- | --- |
| O=C(c1ccsc1I)N(Cc1cc(-c2cccs2)ccc1Cl)C1CC1 | 4.91 |
| Cn1nc(C(F)F)c(C(=O)N(Cc2ccccc2-c2coc3ccccc23)C2CC2)c1F | 3.96 |
| Cc1ccc(-c2csc3ccccc23)c(CN(C(=O)c2c(C(F)F)nn(C)c2F)C2CC2C)c1 (stereo not drawn) [I.166] | 4.92 |
| Cn1cc(C(=O)N(Cc2cc(F)ccc2C2(C)CO2)C2CC2)c(C(F)F)n1 (stereo not drawn) | 2.53 |
| Cn1nc(C(F)F)c(C(=O)N(Cc2cc(F)ccc2-c2coc3ccccc23)C2CC2)c1F | 4.06 |
| Cc1ccc(-c2coc3ccccc23)c(CN(C(=O)c2c(C(F)F)nn(C)c2F)C2CC2)c1 | 4.32 |
| Cn1nc(C(F)F)c(C(=O)N(Cc2ccccc2C2(C)CO2)C2CC2)c1F (stereo not drawn) | 2.68 |
| Cn1nc(C(F)F)c(C(=O)N(Cc2ccccc2-c2cccs2)C2CC2)c1Cl | 3.78 |
| O=C(c1ccsc1I)N(Cc1cc(Cl)ccc1-c1ccc(Cl)s1)C1CC1 | 5.68 |
| Cc1cscc1-c1ccc(Cl)cc1CN(C(=O)c1c(C(F)F)nn(C)c1F)C1CC1 | 4.34 |
| Cn1nc(C(F)F)c(C(=O)N(Cc2cc(Cl)ccc2-c2ccsc2Cl)C2CC2)c1F | 4.41 |
| CC1=NOC(C)(c2ccc(C)cc2CN(C(=O)c2c(C(F)F)nn(C)c2F)C2CC2)C1 (stereo not drawn) | 2.98 |
| Cc1nc(C(F)F)c(C(=O)N(Cc2cc(-c3ccc(Cl)s3)ccc2Cl)C2CC2)s1 | 5.00 |
| Cc1cc(C(=O)N(Cc2cc(-c3cccs3)ccc2Cl)C2CC2)c(C)o1 | 4.72 |
| CC1CC1N(Cc1ccccc1-c1ccsc1)C(=O)c1c(C(F)F)nn(C)c1F (stereo not drawn) | 3.83 |
| CC(C)c1ccc(-c2cnn(C)c2)cc1CN(C(=O)c1c(C(F)F)nn(C)c1F)C1CC1 | 3.13 |
| Cc1ccc(CN(C(=O)c2c(C(F)F)nn(C)c2F)C2CC2)c(C2(C)OCCO2)c1 | 3.25 |
| Cn1cc(C(=O)N(Cc2cc(-c3cccs3)ccc2Cl)C2CC2)c(C(F)F)c1 | 4.16 |
| Cc1ccc(-c2csc3ccccc23)c(CN(C(=O)c2c(C(F)F)nn(C)c2Cl)C2CC2C)c1 (stereo not drawn) [I.164] | 5.19 |
| Cn1nc(C(F)F)c(C(=S)N(Cc2ccccc2-c2ccsc2)C2CC2)c1F | 4.21 |
| Cn1cc(-c2ccccc2CN(C(=O)c2c(C(F)F)nn(C)c2F)C2CC2)cn1 | 2.34 |
| CC1CC1N(Cc1ccccc1-c1ccsc1)C(=O)c1c(C(F)F)nn(C)c1Cl (stereo not drawn) | 3.92 |
| Cc1ccc(-c2csc3ccccc23)c(CN(C(=O)c2c(C(F)F)nn(C)c2Cl)C2CC2C)c1 (stereo not drawn) [I.167] | 5.05 |
| Cc1ccc(-c2csc3ccccc23)c(CN(C(=O)c2c(C(F)F)nn(C)c2F)C2CC2C)c1 (stereo not drawn) [I.163] | 4.98 |
| Cn1nc(C(F)F)c(C(=O)N(Cc2ccccc2Oc2nc(Cl)cc(Cl)n2)C2CC2)c1F | 3.50 |
| Cn1nc(C(F)F)c(C(=O)N(Cc2ccccc2OC2CCOCC2)C2CC2)c1F | 2.80 |
| Cn1nc(C(F)F)c(C(=O)N(Cc2c(C3(C)CO3)ccc(Cl)c2Cl)C2CC2)c1F (stereo not drawn) | 3.55 |
| Cn1cc(C(=O)N(Cc2cc(-c3cccs3)ccc2Cl)C2CC2)c(C(F)F)n1 | 3.68 |
| Cn1cc(C(=O)N(Cc2ccccc2-c2ccco2)C2CC2)c(C(F)F)n1 | 2.96 |
| Cn1nc(C(F)F)c(C(=O)N(Cc2cc(C34CCCCC3O4)ccc2Cl)C2CC2)c1F (stereo not drawn) | 3.99 |
| Cn1nc(C(F)F)c(C(=O)N(Cc2cc(-c3ccc(Cl)s3)ccc2Cl)C2CC2)c1Cl | 5.06 |
| Cn1cc(-c2ccc(Cl)cc2CN(C(=O)c2c(C(F)F)nn(C)c2F)C2CC2)cn1 | 2.80 |
| CC(c1ccccc1Cc1ccc(Cl)cn1)N(C(=O)c1c(C(F)F)nn(C)c1F)C1CC1 (stereo not drawn) | 3.68 |
| Cn1nc(C(F)F)c(C(=O)N(Cc2cc(-c3ccco3)ccc2Cl)C2CC2)c1F | 3.81 |
| Cn1cc(C(=O)N(Cc2cc(-c3ccsc3)ccc2Cl)C2CC2)c(C(F)F)n1 | 3.59 |
| COc1ccsc1-c1ccc(C)cc1CN(C(=O)c1c(C(F)F)nn(C)c1F)C1CC1 | 3.83 |
